Molecular target: Bcl-xL, Q07817
Sequence (Q07817 1-209): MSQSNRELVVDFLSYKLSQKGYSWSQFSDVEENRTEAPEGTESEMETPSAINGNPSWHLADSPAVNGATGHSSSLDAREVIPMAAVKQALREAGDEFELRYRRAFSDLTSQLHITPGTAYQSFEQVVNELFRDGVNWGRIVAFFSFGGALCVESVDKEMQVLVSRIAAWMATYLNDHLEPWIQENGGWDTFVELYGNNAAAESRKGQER
Experiment: peptide SPOT array, c-Myc-tagged receptor at 1 uM or 100 nM, anti-c-Myc-Cy3
Assay readout: SPOT signal as a fraction of Bim BH3's signal on the same receptor and array

These recorded examples may help you get a feel for the data.
- Binder: "KRALIQCAKDIAKALDEVTRLAKEVA [VCL]"
  Reported measurement: 0.21
- Binder: "SHFVACMTAILNQMGDQHYSFYIETF [DOCK2]"
  Reported measurement: 0.07
- Binder: "LSPGRSVTAGDIIVGDEILKGHTQDT [FLAD1]"
  Reported measurement: 0.01
- Binder: "SCMATVIHNPLKALGDQFYKEAIEHC [DPF3]"
  Reported measurement: 0.13
- Binder: "MRSQLGKATALAIMGDKLWWADQVSE [LRP1]"
  Reported measurement: 0.22

A: DLQIYQPGRRLQTVSKESASRVEEEE [SMG6]
B: KSRLVQQSKALKELADELQERCQRPA [TRIM58]
Problem: # min-compare on SPOT signal as a fraction of Bim BH3's signal on the same receptor and array between A and B Identify your pick by its label.
Solution: A
(A: 0.03, B: 0.29)
